These data points were gathered from ChEMBL document CHEMBL2177096.

# experimental-system: Monoglyceride lipase (Homo sapiens)
# Sequence (Q99685 whole entry): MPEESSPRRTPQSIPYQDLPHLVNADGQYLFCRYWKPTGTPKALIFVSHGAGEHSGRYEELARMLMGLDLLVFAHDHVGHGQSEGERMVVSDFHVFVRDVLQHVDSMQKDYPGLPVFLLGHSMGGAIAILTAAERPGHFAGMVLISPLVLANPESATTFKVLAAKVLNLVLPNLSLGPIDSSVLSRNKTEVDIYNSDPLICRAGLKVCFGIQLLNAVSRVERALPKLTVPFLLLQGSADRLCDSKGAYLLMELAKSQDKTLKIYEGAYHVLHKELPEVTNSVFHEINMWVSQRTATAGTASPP
# test-protocol: Inhibition of recombinant human hexahistidine-tagged MGL expressed in Escherichia coli using AHMMCE as substrate after 15 mins by medium throughput fluorescent assay
pIC50: −log10 of the molar value.
measured-metric: pIC50

{"columns": ["chemical-string", "measured-metric", "observed-value"],
 "data": [
  ["COS(=O)(=O)CCCCCCCc1ccc(OCc2ccccc2)cc1", "pIC50", "< 5.30"]
]}

* * *

Entries with their measured Ki, system Cannabinoid receptor 1 (Rattus norvegicus, UniProt P20272):
measured-metric: Ki

{"columns": ["chemical-string", "observed-value"],
 "data": [
  ["O=S(=O)(F)CCCCOc1ccc(OCc2ccccc2)cc1", "104 nM"],
  ["O=S(=O)(F)CCCCCc1ccc(OCc2ccccc2)cc1", "118 nM"],
  ["O=S(=O)(F)CCCCCCCc1ccc(O)cc1", "163 nM"],
  ["O=S(=O)(F)CCCCCc1ccc(O)cc1", "192 nM"],
  ["O=S(=O)(F)CCCCCCCc1cccc(OCc2ccccc2)c1", "335 nM"]
]}

* * *

# experimental-system: Cannabinoid receptor 2 (Mus musculus)
# Sequence (P47936 whole entry): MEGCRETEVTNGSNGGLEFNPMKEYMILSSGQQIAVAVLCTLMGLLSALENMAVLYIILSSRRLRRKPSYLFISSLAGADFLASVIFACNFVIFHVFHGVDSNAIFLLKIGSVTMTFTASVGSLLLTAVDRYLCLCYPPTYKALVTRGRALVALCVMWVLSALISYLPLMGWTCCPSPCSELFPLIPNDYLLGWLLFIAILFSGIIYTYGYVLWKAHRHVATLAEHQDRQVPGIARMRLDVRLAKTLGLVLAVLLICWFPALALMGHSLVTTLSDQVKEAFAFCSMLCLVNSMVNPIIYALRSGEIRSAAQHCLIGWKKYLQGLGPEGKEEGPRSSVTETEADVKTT
# test-protocol: Displacement of [3H]CP-55,940 from mouse CB2 receptor expressed in HEK293 cells
# Assay type: cell-based
Listed compounds paired with reported Ki

{"columns": ["chemical-string", "experimental-system", "Ki, µM"],
 "data": [
  ["O=S(=O)(F)CCCCOc1ccc(OCc2ccccc2)cc1", "Cannabinoid receptor 2 (Mus musculus)", 0.203],
  ["O=S(=O)(F)CCCCCCCc1cccc(OCc2ccccc2)c1", "Cannabinoid receptor 2 (Mus musculus)", 0.099],
  ["O=S(=O)(F)CCCCCc1ccc(OCc2ccccc2)cc1", "Cannabinoid receptor 2 (Mus musculus)", 0.194],
  ["O=S(=O)(F)CCCCCCCc1ccc(O)cc1", "Cannabinoid receptor 2 (Mus musculus)", 0.698],
  ["O=S(=O)(F)CCCCCc1ccc(O)cc1", "Cannabinoid receptor 2 (Mus musculus)", 0.577]
]}
